Just for reference, patent US20250034269A1 is where these values come from.

Documented T1/2 across a set of binders
molecular target: T1, monomeric cynomolgus LTBR ECD (S28-M227) Fc fusion avi biotinylated (P1AE4411) (cynomolgus, UniProt P0DOX5 223-449 = IgG part, biotinylated avi tag); assay: SPR, IgG captured;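 note: rate constants and KD obtained by fitting double-referenced sensorgrams to a 1:1 Langmuir binding model, with dissociation followed for 600 s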
T1 construct: also called cyno LTBR

binder | unit_annotation | T1/2
P1AE9457 (antibody, human IgG1, kappa, L234A L235A, V domains shown, human IgG1 PG LALA; from transgenic rabbit immunization; also called LTBR (9457)) VH: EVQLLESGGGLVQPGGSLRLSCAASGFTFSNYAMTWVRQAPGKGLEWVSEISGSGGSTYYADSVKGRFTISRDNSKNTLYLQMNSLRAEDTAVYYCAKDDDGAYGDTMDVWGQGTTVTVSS VL: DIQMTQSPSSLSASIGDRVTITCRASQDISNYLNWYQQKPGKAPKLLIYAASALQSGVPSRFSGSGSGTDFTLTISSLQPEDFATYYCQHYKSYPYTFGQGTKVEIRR | h | 0.3
P1AE9459 (antibody, human IgG1, kappa, L234A L235A, V domains shown, human IgG1 PG LALA; from transgenic rabbit immunization) VH: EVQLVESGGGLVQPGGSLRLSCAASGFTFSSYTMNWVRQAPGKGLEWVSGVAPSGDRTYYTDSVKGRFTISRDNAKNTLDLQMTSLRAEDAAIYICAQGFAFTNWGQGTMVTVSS VL: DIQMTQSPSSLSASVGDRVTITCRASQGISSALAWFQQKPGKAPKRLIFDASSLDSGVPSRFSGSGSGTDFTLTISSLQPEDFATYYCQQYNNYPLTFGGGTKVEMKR | h | 1.02
P1AE9452 (antibody, human IgG1, kappa, L234A L235A, V domains shown, human IgG1 PG LALA; from transgenic rabbit immunization; also called LTBR (9452)) VH: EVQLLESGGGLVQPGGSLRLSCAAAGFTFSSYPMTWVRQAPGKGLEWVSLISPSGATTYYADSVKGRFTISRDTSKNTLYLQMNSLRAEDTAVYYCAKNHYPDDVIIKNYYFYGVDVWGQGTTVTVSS VL: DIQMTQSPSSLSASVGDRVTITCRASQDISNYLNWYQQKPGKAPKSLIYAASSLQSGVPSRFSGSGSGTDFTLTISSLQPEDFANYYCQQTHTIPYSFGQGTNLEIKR | h | 3.25
